- test-target: METTL21A (Methyltransferase 21A) (Homo sapiens, UniProt Q8WXB1)
- Sequence (Q8WXB1 whole entry): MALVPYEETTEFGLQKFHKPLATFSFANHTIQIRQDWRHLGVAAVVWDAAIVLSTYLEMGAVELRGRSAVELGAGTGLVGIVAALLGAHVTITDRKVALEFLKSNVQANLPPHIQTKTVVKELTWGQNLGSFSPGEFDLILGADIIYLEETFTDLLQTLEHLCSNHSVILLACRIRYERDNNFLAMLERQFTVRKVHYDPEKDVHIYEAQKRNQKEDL
result-type: pKd
Entry type: numeric. Quantity: pKd, the -log10 of concentration in molar units.

The compound O=c1c(-c2ccc(O[C@@H]3O[C@H](CO)[C@@H](O)[C@H](O)[C@H]3O)cc2)coc2cc(O)cc(O)c12 [Sop, sophoricoside] , tested on METTL21A (Methyltransferase 21A) (Homo sapiens, UniProt Q8WXB1), showed pKd of 3.91
